Measured values drawn from PubChem BioAssay AID1963441 for this set.

Assign viability, T/C to each entry below.
Test system: NCI-H1876 complex spheroid growth, % test/control
assayMethodText: Anticancer human tumor NCI-H1876 cell line growth inhibition [Asc];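 further: compound exposure lasted 7 days starting three days after seeding; 100% = DMSO vehicle control wells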
conditionLabel: second compound 0.316 µM; first compound 0.000316 µM; active compounds read low
From the text: Multicellular complex tumor spheroid response to apoptosis pathway targeting inhibitors Alrizomadlin, Pelcitoclax, and Dasminapant in combination with a variety of drugs and investigational agents in selected tumor cell lines […] Compounds. […] If the clinical Cmax for an agent had not been determined, the highest concentration tested was 10 microM. […]
Respond with the bare value in %.

## Input What measured viability, T/C goes with Cn1ncnc1[C@H]1c2n[nH]c(=O)c3cc(F)cc(c23)N[C@@H]1c1ccc(F)cc1 + Cc1c(S(C)(=O)=O)c(-c2cc(F)cc(N3CCN(c4ccc(NS(=O)(=O)c5ccc(NC(CCN6CCC(C(=O)OCCCP(=O)(O)O)CC6)CSc6ccccc6)c(S(=O)(=O)C(F)(F)F)c5)cc4)CC3)c2)c(-c2ccc(Cl)cc2)n1C(C)C ?
## Output 92

## Input What measured viability, T/C goes with Cn1ncnc1[C@H]1c2n[nH]c(=O)c3cc(F)cc(c23)N[C@@H]1c1ccc(F)cc1 + CNC(C)C(=O)NC1CN(S(=O)(=O)c2cccc(S(=O)(=O)N3CCC4CCC(C(=O)NC(c5ccccc5)c5ccccc5)N4C(=O)C(NC(=O)C(C)NC)C3)c2)CCC2CCC(C(=O)NC(c3ccccc3)c3ccccc3)N2C1=O ?
## Output 97.7

## Input What measured viability, T/C goes with NC1CCC(NC2CC2c2ccccc2)CC1 (centres undefined) + CNC(C)C(=O)NC1CN(S(=O)(=O)c2cccc(S(=O)(=O)N3CCC4CCC(C(=O)NC(c5ccccc5)c5ccccc5)N4C(=O)C(NC(=O)C(C)NC)C3)c2)CCC2CCC(C(=O)NC(c3ccccc3)c3ccccc3)N2C1=O ?
## Output 131

## Input What measured viability, T/C goes with NC1CCC(NC2CC2c2ccccc2)CC1 (centres undefined) + Cc1c(S(C)(=O)=O)c(-c2cc(F)cc(N3CCN(c4ccc(NS(=O)(=O)c5ccc(NC(CCN6CCC(C(=O)OCCCP(=O)(O)O)CC6)CSc6ccccc6)c(S(=O)(=O)C(F)(F)F)c5)cc4)CC3)c2)c(-c2ccc(Cl)cc2)n1C(C)C ?
## Output 99.6
